Here, each record is paired with measured pIC50 data.
Target: ROCK2 (Homo sapiens (Human))
Sequence (O75116 whole entry, species assumed): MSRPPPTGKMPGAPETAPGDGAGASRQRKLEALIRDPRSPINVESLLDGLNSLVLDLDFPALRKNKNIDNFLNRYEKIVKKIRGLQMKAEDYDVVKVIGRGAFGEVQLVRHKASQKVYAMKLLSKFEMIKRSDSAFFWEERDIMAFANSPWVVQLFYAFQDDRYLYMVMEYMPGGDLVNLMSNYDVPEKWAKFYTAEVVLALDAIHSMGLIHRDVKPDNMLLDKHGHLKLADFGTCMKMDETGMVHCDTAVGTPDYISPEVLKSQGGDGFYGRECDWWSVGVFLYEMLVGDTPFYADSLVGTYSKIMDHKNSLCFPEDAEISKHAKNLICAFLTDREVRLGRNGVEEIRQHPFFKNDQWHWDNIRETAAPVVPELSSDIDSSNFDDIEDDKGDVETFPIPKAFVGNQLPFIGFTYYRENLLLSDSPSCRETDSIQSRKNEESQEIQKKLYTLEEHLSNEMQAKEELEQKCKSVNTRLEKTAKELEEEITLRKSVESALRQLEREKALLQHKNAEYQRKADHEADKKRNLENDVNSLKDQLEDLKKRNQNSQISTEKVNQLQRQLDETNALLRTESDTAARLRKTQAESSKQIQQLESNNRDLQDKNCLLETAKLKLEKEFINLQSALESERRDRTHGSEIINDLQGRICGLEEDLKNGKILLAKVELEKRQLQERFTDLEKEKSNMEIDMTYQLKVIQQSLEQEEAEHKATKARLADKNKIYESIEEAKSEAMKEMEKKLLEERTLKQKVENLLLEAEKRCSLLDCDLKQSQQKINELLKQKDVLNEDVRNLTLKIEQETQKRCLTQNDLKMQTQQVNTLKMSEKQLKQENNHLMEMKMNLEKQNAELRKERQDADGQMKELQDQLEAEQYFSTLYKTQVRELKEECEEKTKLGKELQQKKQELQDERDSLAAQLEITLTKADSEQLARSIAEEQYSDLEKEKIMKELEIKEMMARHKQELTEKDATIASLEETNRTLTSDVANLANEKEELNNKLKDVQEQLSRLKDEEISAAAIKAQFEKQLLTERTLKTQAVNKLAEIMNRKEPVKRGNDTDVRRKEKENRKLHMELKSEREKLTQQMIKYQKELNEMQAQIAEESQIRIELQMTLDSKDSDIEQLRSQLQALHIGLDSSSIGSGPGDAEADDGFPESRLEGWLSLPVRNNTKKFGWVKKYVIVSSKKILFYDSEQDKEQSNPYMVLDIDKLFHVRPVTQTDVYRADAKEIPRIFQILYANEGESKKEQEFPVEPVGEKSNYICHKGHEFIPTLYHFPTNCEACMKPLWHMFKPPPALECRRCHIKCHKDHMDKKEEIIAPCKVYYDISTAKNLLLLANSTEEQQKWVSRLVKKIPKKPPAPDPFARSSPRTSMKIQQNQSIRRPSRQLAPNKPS
pIC50: −log10 of the molar value.
Assay Readout: pIC50

> print(dat)
                                   compound  assay.readout  numeric.readout
1  COc1cc(C(=O)NCc2cc(F)cc(F)c2)ccc1-c1cn[nH]c1          pIC50             7.20
2  COc1cccc([C@@H](C)NC(=O)c2ccc(-c3cn[nH]c3)cc2Cl)c1          pIC50             6.84
3  CC(O)c1cc(C(=O)NC(C)c2c(F)cccc2F)ccc1-c1cn[nH]c1 (centres unmarked)          pIC50             6.35
4  Cc1cc(C(=O)N[C@H](CO)c2c(F)cccc2F)ccc1-c1cn[nH]c1          pIC50             7.75
5  COc1cc(C(=O)N(Cc2ccccc2F)CC(C)(C)O)ccc1-c1cn[nH]c1          pIC50             6.18

----------
For reference, IC50 measured on ROCK2 (Homo sapiens (Human)):
Assay Readout: IC50 (µM)

> print(dat)
                                   molecule  units.of.measure  numeric.readout
1  COc1cc(C(=O)NCc2cccc(C(N)=O)c2)ccc1-c1cn[nH]c1 [Example 250]                µM          0.00072
2  COc1cc(-c2cn[nH]c2)ccc1C(=O)NC(C)c1c(F)cccc1F (stereo not shown) [Example 226]                µM          0.00513
3  C[C@@H](NC(=O)c1ccc(-c2cn[nH]c2)c(Cn2ccnn2)c1)c1ccccc1 [Example 137]                µM              1.9
4  COc1cccc([C@@H](C)NC(=O)c2ccc(-c3c(C)n[nH]c3C)c(C)c2)c1 [Example 153]                µM            0.415

----------
pIC50: −log10 of the molar value.
This section lists pIC50 readings for ROCK2 (Homo sapiens (Human)).
Assay Readout: pIC50

> print(dat)
                                   compound                   test.target  numeric.readout
1  COc1cc(C(=O)NCc2ccc(Br)cc2Cl)ccc1-c1cn[nH]c1  ROCK2 (Homo sapiens (Human))             8.33
2  COc1cc(C(=O)N[C@H](C)c2ccc3ccccc3c2)ccc1-c1cn[nH]c1  ROCK2 (Homo sapiens (Human))             8.04
3  COc1cc(C(=O)NC(CCN(C)C)c2ccccc2)ccc1-c1cn[nH]c1 (centres unmarked)  ROCK2 (Homo sapiens (Human))             8.11
4  COc1cc(C(=O)NCc2csc(-c3ccccc3)n2)ccc1-c1cn[nH]c1  ROCK2 (Homo sapiens (Human))             7.21
5  COc1cc(C(=O)N[C@@H](Cc2ccccc2)C(N)=O)ccc1-c1cn[nH]c1  ROCK2 (Homo sapiens (Human))             7.85

----------
Target: UniProtKB Q13464
Sequence (Q13464 whole entry, species assumed): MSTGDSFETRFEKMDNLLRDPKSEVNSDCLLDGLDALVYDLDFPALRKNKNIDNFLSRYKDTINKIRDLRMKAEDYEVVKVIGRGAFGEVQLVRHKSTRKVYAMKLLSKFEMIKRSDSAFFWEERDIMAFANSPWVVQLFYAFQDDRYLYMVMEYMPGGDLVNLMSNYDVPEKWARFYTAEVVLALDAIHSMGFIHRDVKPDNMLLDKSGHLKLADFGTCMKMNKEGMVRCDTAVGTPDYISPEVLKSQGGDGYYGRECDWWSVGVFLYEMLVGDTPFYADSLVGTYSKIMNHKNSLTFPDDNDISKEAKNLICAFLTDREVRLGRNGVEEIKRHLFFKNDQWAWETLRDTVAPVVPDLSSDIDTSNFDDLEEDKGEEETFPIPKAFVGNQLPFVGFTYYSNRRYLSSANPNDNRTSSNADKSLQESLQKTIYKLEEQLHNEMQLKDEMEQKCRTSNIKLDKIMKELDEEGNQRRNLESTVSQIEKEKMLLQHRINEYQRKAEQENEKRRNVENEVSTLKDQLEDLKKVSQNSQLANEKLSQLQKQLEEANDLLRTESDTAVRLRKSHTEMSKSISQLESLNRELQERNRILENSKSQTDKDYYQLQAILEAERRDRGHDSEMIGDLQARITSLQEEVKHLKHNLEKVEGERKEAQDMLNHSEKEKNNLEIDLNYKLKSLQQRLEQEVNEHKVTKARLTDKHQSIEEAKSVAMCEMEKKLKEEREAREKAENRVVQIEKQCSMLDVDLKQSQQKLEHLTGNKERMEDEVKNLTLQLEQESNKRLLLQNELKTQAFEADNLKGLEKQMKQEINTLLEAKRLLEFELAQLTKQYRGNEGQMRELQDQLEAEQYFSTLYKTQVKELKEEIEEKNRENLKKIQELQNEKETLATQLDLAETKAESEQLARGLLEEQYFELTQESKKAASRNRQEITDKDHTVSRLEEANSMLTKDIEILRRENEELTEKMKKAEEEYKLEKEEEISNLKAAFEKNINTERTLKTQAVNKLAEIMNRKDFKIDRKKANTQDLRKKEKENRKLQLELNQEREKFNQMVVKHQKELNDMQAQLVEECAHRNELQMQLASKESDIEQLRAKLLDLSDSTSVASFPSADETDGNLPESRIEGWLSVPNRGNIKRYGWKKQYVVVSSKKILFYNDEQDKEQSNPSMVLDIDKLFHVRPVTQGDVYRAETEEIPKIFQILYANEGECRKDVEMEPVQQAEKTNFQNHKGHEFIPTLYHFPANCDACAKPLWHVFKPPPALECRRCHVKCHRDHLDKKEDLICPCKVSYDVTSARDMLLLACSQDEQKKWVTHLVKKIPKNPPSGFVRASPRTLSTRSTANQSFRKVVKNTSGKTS
pIC50: −log10 of the molar value.
Each item that follows carries a reported pIC50.
Assay Readout: pIC50

> print(dat)
                                    molecule  assay.readout  value.prefix  numeric.readout
 1  COc1cc(C(=O)NCc2c(F)ccc(F)c2F)ccc1-c1cn[nH]c1          pIC50             =             7.64
 2  COc1cc(C(=O)NCC(O)c2ccccc2Cl)ccc1-c1cn[nH]c1 (stereo not drawn)          pIC50             =             7.45
 3  COc1cc(C(=O)NCc2ccc(OCC(C)C)cc2Cl)ccc1-c1cn[nH]c1          pIC50             =             5.73
 4  COc1cc(C(=O)NC[C@@H](O)c2cccc(Cl)c2)ccc1-c1cn[nH]c1          pIC50             =             7.63
 5  COc1cc(C(=O)NCc2c(F)ccc(F)c2Cl)ccc1-c1cn[nH]c1          pIC50             =             8.07
 6  Cc1cc(C(=O)N[C@H](CO)c2c(F)cccc2F)ccc1-c1cn[nH]c1          pIC50             =             7.28
 7  COc1cc(-c2cn[nH]c2)ccc1C(=O)NC(C)c1c(F)cccc1F (stereo not drawn) [Example 227]          pIC50             <             5.70
 8  COc1cc(C(=O)N[C@@H](Cc2ccccc2)[C@H](O)CO)ccc1-c1cn[nH]c1          pIC50             =             7.29
 9  Cc1cc(C(=O)NCc2cccc(C(=O)O)c2)ccc1-c1cn[nH]c1          pIC50             =             7.21
10  COc1cccc(CNC(=O)c2ccc(-c3cn[nH]c3)c(C)c2)c1          pIC50             =             7.77
11  CC(NC(=O)c1ccc(-c2cn[nH]c2)c(C=O)c1)c1ccccc1F (stereo not drawn)          pIC50             =             6.29
12  COc1cc(C(=O)N[C@H](CNS(C)(=O)=O)c2ccccc2)ccc1-c1cn[nH]c1          pIC50             =             8.18
13  COc1cc(C(=O)NCc2ccccc2Cl)ccc1-c1c[nH]nc1C          pIC50             =             6.83
14  COc1cc(C(=O)NC(C)(C)c2ccccc2)ccc1-c1cn[nH]c1          pIC50             =             6.67
15  COc1cc(C(=O)NCc2cccc(Cl)c2Cl)ccc1-c1cn[nH]c1          pIC50             =             8.24
16  COc1cccc(CCNC(=O)c2ccc(-c3cn[nH]c3)c(OC)c2)c1          pIC50             =             7.03
17  COc1cccc(CNC(=O)c2ccc(-c3cn[nH]c3)cc2CO)c1          pIC50             =             6.10
18  CC(O)c1cc(C(=O)N[C@H](C)c2ccccc2F)ccc1-c1cn[nH]c1 (stereo partly drawn) [Example 283]          pIC50             =             7.30

----------
Target: ROCK2 (Homo sapiens (Human))
Test: ROCK assay (Caliper LABCHIP peptide phosphorylation), ROCK2;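 further: reaction stopped with EDTA, then phosphorylated and unphosphorylated peptide resolved by microfluidic electrophoresis, kinase inhibition computed at each compound concentration in dose-response series, DMSO under 2%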
Assay type: biochemical
Settings: 5 μM ATP, 1.5 μM peptide substrate
A collection of compounds and their measured IC50
Assay Readout: IC50 (nM)

> print(dat)
                                    compound  numeric.readout
 1  COc1cc(C(=O)NC2(c3ccccc3)CCC2)ccc1-c1cn[nH]c1 [Example 222]               26
 2  COc1cccc(CNC(=O)c2ccc(-c3cn[nH]c3)cc2CO)c1 [Example 161]              185
 3  COc1cc(-c2cn[nH]c2)ccc1C(=O)NCc1c(F)cccc1F [Example 207]             4.39
 4  CCS(=O)(=O)NC[C@@H](NC(=O)c1ccc(-c2cn[nH]c2)c(OC)c1)c1ccccc1 [Example 262]               36
 5  COc1cc(C(=O)NCc2ccc(OCC(C)C)cc2Cl)ccc1-c1cn[nH]c1 [Example 46]              786
 6  Cc1cc(C(=O)NCc2cccc(C(=O)O)c2)ccc1-c1cn[nH]c1 [Example 239]             11.5
 7  COc1cc(C(=O)NCc2cccc(OC(F)F)c2)ccc1-c1cn[nH]c1 [Example 78]             3.94
 8  COc1cc(C(=O)NC(CN2CCOCC2)c2ccccc2)ccc1-c1cn[nH]c1 (centres unmarked) [Example 10]             44.5
 9  CC(O)c1cc(C(=O)NC(C)c2ccccc2F)ccc1-c1cn[nH]c1 (centres unmarked) [Example 278]             1320
10  COc1cc(C(=O)NCc2cccc(N3CCCC3)c2)ccc1-c1cn[nH]c1 [Example 87]              130
11  COc1cc(C(=O)NCc2ccc(C#N)cc2)ccc1-c1cn[nH]c1 [Example 143]             82.5
12  COc1cc(C(=O)NCC(c2ccccc2)N2CCCC2)ccc1-c1cn[nH]c1 (centres unmarked) [Example 125]             84.9
13  COc1cc(C(=O)NC(CN2CCN(C)CC2)c2ccccc2)ccc1-c1cn[nH]c1 (centres unmarked) [Example 13]             77.1
14  COC[C@@H](NC(=O)c1ccc(-c2cn[nH]c2)c(C(C)O)c1)c1ccccc1 (some centres unmarked) [Example 277]             44.2
15  CC(C)(O)COc1cc(C(=O)N[C@H](CN)c2ccccc2)ccc1-c1cn[nH]c1 [Example 257]             52.8
16  CC[C@@H](NC(=O)c1ccc(-c2cn[nH]c2)c(OC)c1)c1c(F)cccc1F [Example 264]             23.4
17  COc1cc(C(=O)NC(C)c2ccc3c(c2)OCCO3)ccc1-c1cn[nH]c1 (centres unmarked) [Example 101]              189
18  Cc1cc(C(=O)NCc2ccc(F)cc2Cl)ccc1-c1cn[nH]c1 [Example 149]             11.6
19  COc1cc(C(=O)NC(C)(C)c2ccccc2)ccc1-c1cn[nH]c1 [Example 30]              129
20  COc1cc(C(=O)NCc2ccc3[nH]c(=O)[nH]c3c2)ccc1-c1cn[nH]c1 [Example 102]              662
21  CCC(O)c1cc(C(=O)N[C@H](C)c2ccccc2)ccc1-c1cn[nH]c1 (some centres unmarked) [Example 286]              190
22  COc1cc(C(=O)NC(CN2CCCC2)c2ccccc2)ccc1-c1cn[nH]c1 (centres unmarked) [Example 14]             86.4
23  COc1cc(C(=O)NCc2ccccc2C(C)C)ccc1-c1cn[nH]c1 [Example 267]              104
24  COc1cc(C(=O)N[C@H](CNC2CC2)c2c(F)cccc2F)ccc1-c1cn[nH]c1 [Example 266]             4.53
25  C[C@@H](NC(=O)c1ccc(-c2cn[nH]c2)c(S(C)(=O)=O)c1)c1ccccc1 [Example 188]              208
26  COc1cc(C(=O)NCCc2cccc(O)c2)ccc1-c1cn[nH]c1 [Example 124]                7
27  COC(=O)c1n[nH]cc1-c1ccc(C(=O)N[C@H](C)c2cccc(OC)c2)c(OC)c1 [Example 302]             69.6
28  COc1cc(C(=O)NCc2cccc(Cl)c2Cl)ccc1-c1cn[nH]c1 [Example 29]             2.53
29  COc1cc(CNC(=O)c2ccc(-c3cn[nH]c3)c(OC)c2)ccc1F [Example 96]             2.41
30  COc1cc(C(=O)NCc2cccnc2)ccc1-c1cn[nH]c1 [Example 19]             23.8
31  CC(O)c1cc(C(=O)N[C@H](C)c2c(F)cccc2F)ccc1-c1cn[nH]c1 (some centres unmarked) [Example 292]             1510
32  COc1cc(C(=O)NCc2ccc(Cl)cc2F)ccc1-c1cn[nH]c1 [Example 99]             1.36
33  COc1cc(C(=O)N[C@H](CNS(C)(=O)=O)c2ccccc2)ccc1-c1cn[nH]c1 [Example 260]              1.9
34  COc1cc(C(=O)N(C)CCc2ccccc2)ccc1-c1cn[nH]c1 [Example 70]              164
35  CCC(O)c1cc(C(=O)N[C@H](C)c2ccccc2)ccc1-c1cn[nH]c1 (some centres unmarked) [Example 284]              183
